Listing of IC50 toward Serine/threonine-protein kinase mTOR (Homo sapiens), each taken from a published source.

molecule	IC50
COc1cncc(-c2ccc3ncc4c(c3c2)n(-c2cn(C)nc2C)c(=O)n4C)c1	0.017 µM
O=c1[nH]c2ncc(-c3cnc4[nH]ccc4c3)cc2n1CC1COCCN1 (stereo not drawn)	< 0.05 µM
O=C(Cn1cnc2c(-c3cccc(O)c3)nc(N3CCOCC3)nc21)N1CCOCC1	1 to 5 µM
CCNc1nc2c(-c3cccc(O)c3)nc(N3CCOCC3)nc2n1C(C)CC (stereo not drawn)	< 1 µM
C[C@@H]1CN(CCn2c(=O)[nH]c3ncc(-c4cnc5[nH]ccc5c4)cc32)C[C@H](C)O1	< 0.05 µM
CNc1ncc(-c2ccc3ncc4c(c3c2)n(-c2c(C)nn(C)c2C)c(=O)n4C)cc1F	0.447 µM
CC(=O)Nc1cccc(-c2nc(N3CCOCC3)nc3c2ncn3-c2ccccc2)c1	> 5 µM
COc1cccc(-n2c(-c3cc(-c4cnc5[nH]ccc5c4)ccn3)cn(C)c2=O)c1	0.0001 to 0.1 µM
CC(C)n1c(N2CCN(S(C)(=O)=O)CC2)nc2c(N3CCOCC3)nc(-c3cnc(N)nc3)nc21	0.03 to 0.1 µM
CCNc1cc(-c2ccc3ncc4c(c3c2)n(-c2cn(C)nc2C)c(=O)n4C)cnc1C	0.003 µM
Nc1ncc(-c2cc(N3CCOCC3)cc(S(=O)(=O)C3CCOCC3)c2)cn1	1.87 µM
NCC(=O)N1CCN(c2nc3c(N4CCOCC4)nc(-c4cnc(N)nc4)nc3n2CC2CC2)CC1	0.03 to 0.1 µM
CC(=O)C(=O)N1CCN(c2nc3c(N4CCOCC4)nc(-c4cnc(N)nc4)nc3n2CC(F)(F)F)CC1	< 0.01 µM
COCc1ncc(-c2ccc3ncc4c(c3c2)n(-c2cn(C)nc2C)c(=O)n4C)cc1OC(C)C	0.025 µM
Cc1nn(C)cc1-n1c(=O)n(C)c2cnc3ccc(-c4cncc(C(C)(C)O)c4)cc3c21	0.009 µM
CN(C)c1ncc(-c2ccc3ncc4c(c3c2)n(-c2cn(C)nc2Cl)c(=O)n4C)cn1	0.005 µM
CCNC(=O)Nc1ccc(-c2nc3c(c(N4CCOC[C@@H]4C)n2)C(CC)S(=O)(=O)C3)cc1 (stereo partly drawn)	< 0.1 µM
CN(C)C(=O)c1ccc(NC(=O)Nc2ccc(-c3nc(N4CCOCC4)c4cc(F)c(-c5cncnc5)cc4n3)cc2)cc1	< 0.05 µM
Cc1c(-c2cnc3[nH]c(=O)n(C[C@H]4CC[C@@H](O)CO4)c3c2)cnc2[nH]ccc12 (racemic)	< 0.05 µM
CNC(=O)c1ccc(-c2cnc3c(N4CCOCC4)nc(-c4cnc(N)nc4)nc3c2)cc1	< 0.05 µM
Cc1nn(C)cc1-n1c(=O)n(C)c2cnc3ccc(-c4ccc5c(c4)CCN5C)cc3c21	0.157 µM
Cn1cc(-n2c(=O)n(C)c3cnc4ccc(-c5ccc(CO)nc5)cc4c32)c(Cl)n1	0.006 µM
CC(C)Cn1c(N2CCN(C(=O)CO)CC2)nc2c(N3CCOC[C@@H]3C)nc(-c3cnc(N)nc3)nc21	< 0.01 µM
CN1CCN(c2ccc(-c3cnc4c(N5CCOCC5)nc(-c5cnc(N)nc5)nc4c3)cc2NC(=O)C2CC2)CC1	< 0.05 µM
